Numbers sourced from patent US5219839A.

What inhibition at 0.1 µM was measured for each of the following?
# systemUnderTest: A1 receptors (Rattus norvegicus)
# Construct: the brain is quickly removed and washed in cold isotonic solution; from tissue; host or cells: rat brain hemispheres (membrane homogenate)
# Sequence (P25099 1-326): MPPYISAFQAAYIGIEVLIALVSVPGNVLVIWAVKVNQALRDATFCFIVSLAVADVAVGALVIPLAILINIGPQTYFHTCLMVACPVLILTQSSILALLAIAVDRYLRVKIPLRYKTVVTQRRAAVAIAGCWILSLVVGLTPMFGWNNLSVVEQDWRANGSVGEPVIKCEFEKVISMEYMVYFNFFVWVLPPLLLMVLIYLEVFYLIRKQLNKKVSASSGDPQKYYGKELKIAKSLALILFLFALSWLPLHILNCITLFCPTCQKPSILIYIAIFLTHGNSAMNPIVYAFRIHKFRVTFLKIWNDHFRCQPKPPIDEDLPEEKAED
# experimentalProtocol: Binding to adenosine A1 receptors: competitive displacement of [^3 H] PIA, rat brain membranes
# conditionContext: 10^-7 M; [^3 H] PIA 2.5 nM; n=3; read-out: % displacement of the labeled ligand, A1, 1E-7M
# unit: % | format: bare number

So the reported inhibition at 0.1 µM for O=C(NC1CC1)[C@H]1O[C@@H](n2cnc3c(NCC4CC45c4ccccc4CCc4ccccc45)ncnc32)[C@H](O)[C@@H]1O (mixture of isomers) [Example 45] , on A1 receptors (Rattus norvegicus), turned out to be 20

So the reported inhibition at 0.1 µM for OC[C@H]1O[C@@H](n2cnc3c(NCC4CC4(c4ccccc4)c4ccccc4)ncnc32)[C@H](O)[C@@H]1O (mixture of isomers) [Example 51] , on A1 receptors (Rattus norvegicus), turned out to be 18

So the reported inhibition at 0.1 µM for O=C(NC1CC1)[C@H]1O[C@@H](n2cnc3c(NCC4CC4(c4ccc(F)cc4)c4ccc(F)cc4)ncnc32)[C@H](O)[C@@H]1O (mixture of isomers) [Example 40] , on A1 receptors (Rattus norvegicus), turned out to be 15

So the reported inhibition at 0.1 µM for OC[C@H]1O[C@@H](n2cnc3c(NCC4CC4(c4ccccc4)c4cc(Cl)cc(Cl)c4)ncnc32)[C@H](O)[C@@H]1O (mixture of isomers) [Example 52] , on A1 receptors (Rattus norvegicus), turned out to be 18

So the reported inhibition at 0.1 µM for CC(C)NC(=O)[C@H]1O[C@@H](n2cnc3c(NCC4CC4(c4ccccc4)c4ccccc4)ncnc32)[C@H](O)[C@@H]1O (mixture of isomers) [Example 47] , on A1 receptors (Rattus norvegicus), turned out to be 7

So the reported inhibition at 0.1 µM for O=C(NC1CC1)[C@H]1O[C@@H](n2cnc3c(NCC4CC4(c4ccccc4)c4ccccc4)ncnc32)[C@H](O)[C@@H]1O (mixture of isomers) [Example 42] , on A1 receptors (Rattus norvegicus), turned out to be 20

So the reported inhibition at 0.1 µM for CCNC(=O)[C@H]1O[C@@H](n2cnc3c(NCC4CC4(c4ccccc4)c4ccccc4)ncnc32)[C@H](O)[C@@H]1O (mixture of isomers) [Example 41] , on A1 receptors (Rattus norvegicus), turned out to be 31

* * *

# systemUnderTest: A1 receptors (Rattus norvegicus)
# Construct: the brain is quickly removed and washed in cold isotonic solution; from tissue; host or cells: rat brain hemispheres (membrane homogenate)
# experimentalProtocol: Binding to adenosine A1 receptors: competitive displacement of [^3 H] PIA, rat brain membranes
# conditionContext: 10^-5 M; [^3 H] PIA 2.5 nM; n=3; read-out: % displacement of the labeled ligand, A1, 1E-5M
What inhibition at 10 µM was measured for each of the following?
# unit: % | format: bare number

Recorded result, OC[C@H]1O[C@@H](n2cnc3c(NCC4CC4(c4ccccc4)c4ccccc4)ncnc32)[C@H](O)[C@@H]1O (mixture of isomers) [Example 51] , inhibition at 10 µM: 93

Recorded result, O=C(NC1CC1)[C@H]1O[C@@H](n2cnc3c(NCC4CC45c4ccccc4CCc4ccccc45)ncnc32)[C@H](O)[C@@H]1O (mixture of isomers) [Example 45] , inhibition at 10 µM: 93

Recorded result, O=C(NC1CC1)[C@H]1O[C@@H](n2cnc3c(NCC4CC4(c4ccccc4)c4ccccc4)ncnc32)[C@H](O)[C@@H]1O (single isomer, unassigned) [Example 44] , inhibition at 10 µM: 90

Recorded result, CCNC(=O)[C@H]1O[C@@H](n2cnc3c(NCC4CC4(c4ccccc4)c4ccccc4)ncnc32)[C@H](O)[C@@H]1O (mixture of isomers) [Example 41] , inhibition at 10 µM: 98

Recorded result, OC[C@H]1O[C@@H](n2cnc3c(NCC4CC4(c4ccccc4)c4cc(Cl)cc(Cl)c4)ncnc32)[C@H](O)[C@@H]1O (mixture of isomers) [Example 52] , inhibition at 10 µM: 92

Recorded result, O=C(NC1CC1)[C@H]1O[C@@H](n2cnc3c(NCC4CC4(c4ccc(F)cc4)c4ccc(F)cc4)ncnc32)[C@H](O)[C@@H]1O (mixture of isomers) [Example 40] , inhibition at 10 µM: 94

Recorded result, CCNC(=O)[C@H]1O[C@@H](n2cnc3c(NCC4CC4(c4ccccc4)c4ccccc4)ncnc32)[C@H](O)[C@@H]1O (single isomer, unassigned) [Example 49] , inhibition at 10 µM: 93

Recorded result, CC(C)NC(=O)[C@H]1O[C@@H](n2cnc3c(NCC4CC4(c4ccccc4)c4ccccc4)ncnc32)[C@H](O)[C@@H]1O (mixture of isomers) [Example 47] , inhibition at 10 µM: 93
